Assay: In vivo pharmacokinetic studies in rats, 1 hr intravenous infusion
Details: male, Sprague-Dawley, rat, in vivo, iv, 30 mg/kg, Vd, male SD rats, 1 h IV infusion
quantity measured: Vd (L/kg)
Write the value in L/kg as a bare number.

Which Vd is listed for Cn1c(=O)ccc2ccc(F)c(CCNC[C@H]3CN(c4cnc5c(n4)NC(=O)CO5)C(=O)O3)c21 ?
2.83

====

Experiment: In vivo pharmacokinetic studies in rats, 1 hr intravenous infusion
Settings: male, Sprague-Dawley, rat, plasma, iv, 5 mg/kg
quantity measured: AUC(0-t) (ng·h/mL)
Write the value in ng·h/mL as a bare number.

Which AUC(0-t) is listed for Cn1c(=O)ccc2ccc(F)c(CCNC[C@H]3CN(c4cnc5c(n4)NC(=O)CO5)C(=O)O3)c21 [Example 15] ?
1700

====

Assay: In vivo pharmacokinetic studies in rats, 1 hr intravenous infusion
Settings: male, Sprague-Dawley, rat, plasma, iv, 5 mg/kg
quantity measured: Tmax (min)
Write the value in min as a bare number.

Which Tmax is listed for Cn1c(=O)ccc2ccc(F)c(CCNC[C@H]3CN(c4cnc5c(n4)NC(=O)CO5)C(=O)O3)c21 ?
46.2

====

Assay: In vivo pharmacokinetic studies in rats, 1 hr intravenous infusion
Conditions: male, Sprague-Dawley, rat, in vivo, iv
quantity measured: AUC(0-t) (µg·h/mL)
Write the value in µg·h/mL as a bare number.

Which AUC(0-t) is listed for Cn1c(=O)ccc2ccc(F)c(CCNC[C@H]3CN(c4cnc5c(n4)NC(=O)CO5)C(=O)O3)c21 [Example 15] ?
104

====

Test system: Escherichia coli ATCC 25922
Test: Minimum Inhibitory Concentration (MIC) in LB media
Type: cell-based
Details: Escherichia coli, ATCC25922, read-out: Minimum Inhibitory Concentration E. coli ATCC 25922
quantity measured: MIC

Which MIC is listed for Cn1c(=O)cnc2ccc(F)c(CCNC[C@H]3CN(c4cnc5c(n4)NC(=O)CO5)C(=O)O3)c21 [Example 30] ?
0.06 µg/mL

Which MIC is listed for COCCn1c(=O)ccc2ccc(F)c(CCNC[C@H]3CN(c4cnc5c(n4)NC(=O)CO5)C(=O)O3)c21 [Example 21] ?
0.06 µg/mL

Which MIC is listed for O=C1COc2ccc(N3C[C@H](CNCCc4c(F)ccc5ccc(=O)n(CCO)c45)OC3=O)nc2N1 [Example 10] ?
0.03 µg/mL

Which MIC is listed for Cn1c(=O)ccc2ccc(F)c(CCNC[C@H]3CN(c4ncc5c(n4)NC(=O)CO5)C(=O)O3)c21 [Example 16] ?
0.06 µg/mL

Which MIC is listed for CCn1c(=O)ccc2ccc(F)c(CCNC[C@H]3CN(c4cnc5c(n4)NC(=O)CO5)C(=O)O3)c21 [Example 26] ?
0.03 µg/mL

Which MIC is listed for CS(=O)(=O)CCn1c(=O)ccc2ccc(F)c(CCNC[C@H]3CN(c4ccc5c(n4)NC(=O)CO5)C(=O)O3)c21 [Example 11] ?
0.25 µg/mL

Which MIC is listed for CN1C(=O)CCc2ccc(F)c(CCNC[C@H]3CN(c4ccc5c(n4)NC(=O)CO5)C(=O)O3)c21 [Example 2] ?
0.125 µg/mL

Which MIC is listed for Cn1c(=O)ccc2ncc(F)c(CCCNCC3CN(c4ccc5c(n4)NC(=O)CO5)C(=O)O3)c21 (racemic) [Example 1] ?
< 0.5 µg/mL

Which MIC is listed for O=C1COc2ncc(N3C[C@H](CNCCc4c(F)ccc5ccc(=O)n(CCO)c45)OC3=O)nc2N1 [Example 20] ?
0.125 µg/mL

Which MIC is listed for Cn1c(=O)cc(CO)c2ccc(F)c(CCNC[C@H]3CN(c4ccc5c(n4)NC(=O)CO5)C(=O)O3)c21 [Example 12] ?
0.25 µg/mL

Which MIC is listed for Cn1c(=O)cnc2ccc(F)c(CCNC[C@@H]3CN(c4ccc5c(n4)NC(=O)CO5)C(=O)O3)c21 [Example 5] ?
0.06 µg/mL

Which MIC is listed for Cn1c(=O)cnc2ccc(F)c(CCNC[C@H]3CN(c4ncc5c(n4)NC(=O)CO5)C(=O)O3)c21 [Example 17] ?
0.125 µg/mL

Which MIC is listed for Cn1c(=O)ccc2ncc(F)c(CCNC[C@H]3CN(c4cnc5c(n4)NC(=O)CO5)C(=O)O3)c21 [Example 29] ?
0.125 µg/mL
